Target of assay: 5-lipoxygenase (Rattus norvegicus)
Construct: endogenous in cells; host or cells: RBL-1
Sequence (P12527 1-673): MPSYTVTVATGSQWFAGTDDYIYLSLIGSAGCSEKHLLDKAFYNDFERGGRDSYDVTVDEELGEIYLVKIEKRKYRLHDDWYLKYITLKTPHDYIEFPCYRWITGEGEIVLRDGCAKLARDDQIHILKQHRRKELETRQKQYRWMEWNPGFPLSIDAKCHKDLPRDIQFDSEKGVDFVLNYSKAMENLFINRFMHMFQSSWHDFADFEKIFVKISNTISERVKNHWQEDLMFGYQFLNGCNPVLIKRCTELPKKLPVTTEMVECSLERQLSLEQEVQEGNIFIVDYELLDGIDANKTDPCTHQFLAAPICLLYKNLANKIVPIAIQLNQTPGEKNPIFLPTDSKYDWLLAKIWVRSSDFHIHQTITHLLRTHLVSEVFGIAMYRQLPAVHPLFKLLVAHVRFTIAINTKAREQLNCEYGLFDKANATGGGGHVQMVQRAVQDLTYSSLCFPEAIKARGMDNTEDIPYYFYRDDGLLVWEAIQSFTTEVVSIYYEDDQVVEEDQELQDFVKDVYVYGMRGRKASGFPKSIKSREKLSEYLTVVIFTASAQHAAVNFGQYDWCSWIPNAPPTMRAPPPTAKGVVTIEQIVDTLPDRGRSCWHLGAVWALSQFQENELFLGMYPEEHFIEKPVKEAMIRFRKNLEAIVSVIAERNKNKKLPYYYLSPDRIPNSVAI
Run description: Inhibition of 5-lipoxygenase activity in RBL-1 cells (5-HETE production)
Assay type: cell-based
Condition set: 10 μM, 37° C., 20 minutes, arachidonic acid + A-23187
Parameter: inhibition at 10 µM (%)
Please give a number only; it is taken to be in %.

Solved cases (5 shown):
COC1=C(OC)C(=O)C(CC=C(C)COc2ccc(CC(=O)O)cc2)=C(C)C1=O [drawing 38]	83.3
CC1=C(C)C(=O)C(c2nc3cc(C(C)C(=O)O)ccc3o2)=C(C)C1=O (centres unmarked)	79.2
CCCCCC#CCC#CCC#CCC#CCCCC(=O)O [ETYA, Eicosatetraynoic acid, reference compound]	39.4
COC1=C(OC)C(=O)C(CCCCOc2ccc(/C=C/C(=O)O)cc2)=C(C)C1=O	83.1
COC1=C(OC)C(=O)C(CC=C(C)COc2ccc(/C=C/C(=O)O)cc2)=C(C)C1=O	85.8

**Q:** # get_value(readout='inhibition at 10 µM', item= COC1=C(OC)C(=O)C(COc2ccc(/C=C/C(=O)O)cc2)=C(C)C1=O [drawing 37] )
**A:** 83.5

**Q:** # get_value(readout='inhibition at 10 µM', item= NC1=NN(c2cccc(C(F)(F)F)c2)CC1 [BW755C, reference compound] )
**A:** 39.1

**Q:** # get_value(readout='inhibition at 10 µM', item= COC1=C(C)C(=O)C(COc2ccc(CC(=O)O)cc2)=C(C)C1=O )
**A:** 81.5
